Assay: yeast display, Sf9 membrane polyspecificity reagent, FACS + sequencing; frameworks hold sequencing errors
experimental readout: polyreactivity (PSR sort gate)

{"construct sequence": "QVQLVESGGGLVQAGGSLRLSCAASGYIFYTYAMGWYRQAPGKERELVASIDSGGSTNYADSVKGRFTISRDNAKNTVYLQMNSLKPEDTAVYYCAADVIVRVYYYYYVLMDYWGQGTQVTVSS", "polyreactivity (PSR sort gate)": "low polyreactivity"}
{"construct sequence": "QVQLGESGGGLVQAGGSLRLSCAASGRTFYTNARGWYRQAAGKARELAADISRGGTTYYADSVKGRFTISRDNAKNTVYLQMNSLKPQDTAVYYSAAEGHELTEGDSWGQGTQVTVSS", "polyreactivity (PSR sort gate)": "low polyreactivity"}
{"construct sequence": "QVQLVESGGGLVQAGGSLRLSCAASGSIFAGNAMGWYRQAPGRERELVAGITFGDDSTYYADSVKGRFTISRDNAKNTVYLQMNSLKPEDTAVYYCATDMHPYNYYFYHYWVDAAYDYWGQGTQVTVSS", "polyreactivity (PSR sort gate)": "low polyreactivity"}
{"construct sequence": "QGQLVESGGGLVQAGGSLRLSCAASGFSFLRYAMGWYRQAPGKERELVAAISTSGGSTSYADSVKGRFTISRDNAKNTVSLQKNSLKQEDTAVYYCNAVLYKVSISEYDYWGQGTQVTVSS", "polyreactivity (PSR sort gate)": "high polyreactivity"}
{"construct sequence": "QVQLVESGGGLVQAGGSLRLSCAASGFTFRGYAMGWYRQAPGKERELVASITYRGGSTYYADSVKGRFTISRDNAKNTVYLQMNSLKPEDTADYYCNAGFGGRRRQDAFIGTSIYDYWGQGTQVTVSS", "polyreactivity (PSR sort gate)": "low polyreactivity"}
{"construct sequence": "QVQLVESGGGLVQAGGSLRLSCAASGSTFYYYAMGRYRQAPGKEMELVATISRGGSTNYADSVKGRFTISRDNAKNTVYLQMNSLKPEDTAVYYCAIGYLRPYGSHRESTPYDYWGEGTQVTVSS", "polyreactivity (PSR sort gate)": "low polyreactivity"}

Item QVQHVESGGGLVQAGGSLRLSCAASGSIFSYYAMGWYRQPPGKERELVATISSGDSTYYADSVKGRFTISRDNAKKTVYLQMNSLKPEDTAVYYCARKPRIRYYPAPYDYWGQGTQVTVSS has what recorded polyreactivity (PSR sort gate)?
low polyreactivity

# lookup: polyreactivity (PSR sort gate) of QVQLVESGGGLVQAGGSLSLSCAATAFTFTYYAMGWYRQAPGKERELVAAITYSGGTTYYADSVKGRFTISRDNAKNTVYLQMNSLKPEDTAVYYCAAVPYYVLARSFYRYGYWGQGTQVTVSS
low polyreactivity

Please look up its polyreactivity (PSR sort gate): QVQLVESGGGLVQAGGSLSLSCAASGSTFSPYAMGWYRQAPGKERELVAAITGSTGSTYYADSVKGRFTISRDNAKNTVYLQMNCLKPEDTAVYYCAAVSSNAGHVSRRRGYYWGQGTQVTVSS
high polyreactivity

* * *

Assay: yeast display, Sf9 membrane polyspecificity reagent, FACS + sequencing; frameworks hold sequencing errors
experimental readout: polyreactivity (PSR sort gate)

{"construct sequence": "QVQLVESGGGLVQAGGSLRLSCAASGNIFTYYVMGWYRQAPGKESELVAAISRRGGSTYYADSVKGRFTISRDNAKNTVYLQMNSLNPEDTAVYYCADRWYKWSTFSGWSRYDYWGQGTQVTVSS", "experimental readout": "polyreactivity (PSR sort gate)", "result value": "high polyreactivity"}
{"construct sequence": "QVQLVESGGGLVQAGGSLRLSCAASGRIFYLNDMGWYRQAPGKERELVATITSTGGSTYYADSVKGRFTISRDNAKNTVYLQMNSLKPEDTAVYYCAAGGWRAYSYTARYDYWGQGTQVTVSS", "experimental readout": "polyreactivity (PSR sort gate)", "result value": "low polyreactivity"}
{"construct sequence": "QVQLVESGGGLVQAGGSLRLSCAASGRTFRTYTMGWYRQAPGKEREFVAAINKSGGTTNYADSVKGRFTISRDNAKNTVYLQMNSLKPEDTAVYYCAKRGRSTYGYDYWGQGTQVTVSS", "experimental readout": "polyreactivity (PSR sort gate)", "result value": "high polyreactivity"}
{"construct sequence": "QVQLVESGGGLVQAGGSLRLSCAASGRTFGGYAMGWYRQAPGKERELVATISYSSGSTYYADSVKGRFTISRDNAKNTVYLQLNSLKTEDTAVYYCAAEYRSRSWRMDYWGQGTQVTVSS", "experimental readout": "polyreactivity (PSR sort gate)", "result value": "high polyreactivity"}
{"construct sequence": "QVQLVESGGGLVQAGGILPLSCAASGSIFVSNAMGWSRQAPGKERELVAAISSGSTYYADSVKGRFTISRDNAKNTVYLQMNSLKPEDTAVFYCIARSLLYEFDYWGQGTQVTVSS", "experimental readout": "polyreactivity (PSR sort gate)", "result value": "low polyreactivity"}
{"construct sequence": "QVQLVESGGGLVQAGGSLRLSCAASGRTFGQNAMGWYRPAPGKERELVAAISRGGSTYYADSVKGRFTISRDNAKNTVYLQMNSLKPEDTAVYYCAAAKKSGVYLRLNYWGQGTQVTVSS", "experimental readout": "polyreactivity (PSR sort gate)", "result value": "high polyreactivity"}
{"construct sequence": "QAQLQESCGSLVQAGGGQRLSCAASGYISVGTVIGWYRQAPSKERELVASIDQGANTNYADSVKGRFTISRDNAKNNVYLKMNSLKPEDTAVYYCATESTYILNYWGQGTQVTVSS", "experimental readout": "polyreactivity (PSR sort gate)", "result value": "low polyreactivity"}
{"construct sequence": "QVQLQEGGGGLVQAGVSLRLSCAASGYISYGDVMGWNRQAPGEERELVASIGLDATTNYADSVKGRFTISRDNAKISVYLQMNSLKPEATAVYYCAADVGSGVLCGYWGQGTQMTVSS", "experimental readout": "polyreactivity (PSR sort gate)", "result value": "high polyreactivity"}

Turning now to a further record.
Requested field: polyreactivity (PSR sort gate). Item: QVQLVESGGGLVQAGGSLRLSCAASGRTFGRYAMGWYRQAPGKERELVADITGGGSTNYADSVKGRFTISRDNAKNTVYFQMNSLKPEDTAVYYCNAGILSRWVRKYYYWGQGTQVTVSS
low polyreactivity

* * *

Assay: yeast display, Sf9 membrane polyspecificity reagent, FACS + sequencing; frameworks hold sequencing errors
experimental readout: polyreactivity (PSR sort gate)

Answered examples (10):
{"construct sequence": "QVQLVESGGGLVQAGGSLRLSCAASGSTFNAYAMGWYRQAPGKERELVAAISYTGGSTYYADSVKGRFTISRDNAKNTVYLQMNSLKPEDTAVYYCARRQARKFYYWGQGTQVTVSS", "experimental readout": "polyreactivity (PSR sort gate)", "result value": "high polyreactivity"}
{"construct sequence": "QVQLVESGGGLVQAGGSLRLSCAASGRIFSGYAMGWYRQAPGKERELVAAITSRSGSTYYADSVKGRFTISRDNAKNTVYLQMNSLKPEDTAVYYCAAEYVRFYWYTSDYWGQGTQVTVSS", "experimental readout": "polyreactivity (PSR sort gate)", "result value": "low polyreactivity"}
{"construct sequence": "QVQLVESGGGLVQAGGSLRLSCAASGRIFVKYAMGWYRQAPGKERELVAAIRSGGSTYYADSVKGRFTISRDNAKNTVYLQMNRLKPEDTAVYYCAAERNKHHYYTEPYDYWGQGTQVTVSS", "experimental readout": "polyreactivity (PSR sort gate)", "result value": "low polyreactivity"}
{"construct sequence": "QVQLVESGGGLVQAGGSLRLSCAASGRIFRHNTMGWYRQAPGNESELVAGITASGGDTYYADSVTGRFTISRDNAKNTVYLQMNSLNPEDTAVYDCATSQYGYRSWPGLYYWGQGTQVTVSS", "experimental readout": "polyreactivity (PSR sort gate)", "result value": "low polyreactivity"}
{"construct sequence": "QVQLVESGGGLVQAGGSLRLTCAASGRIFGKYAKGRYRQAAGKEREFVATITRGGGTTSYADSVKGRFTNSRDNAMNTVYLQMNSLKPVDTAVYYCATRYFRGSYRNGDYWGQGTQVTVSS", "experimental readout": "polyreactivity (PSR sort gate)", "result value": "high polyreactivity"}
{"construct sequence": "QVQLVESGGGLVQAGGSLRLSCAASGSTFGHYAMGWYIQAPGKERELVAGITDTDNHELRRLCEGRFTISRDNAKNTVYLQMNSLKPEDTAVYYCNADDTYYPLCGITGYDYWGQGTQVTVSS", "experimental readout": "polyreactivity (PSR sort gate)", "result value": "low polyreactivity"}
{"construct sequence": "QVQHVESGGRLVQAGGSLRLSWAASGRIFRVNAMGRYRQAPGKERELVAAINFSGTSTYFADSVKGRFTISRDNAKNTVYLQMNSLKPDDTAVYYCNALTTSNSGRFYYWGQGTQVTVSS", "experimental readout": "polyreactivity (PSR sort gate)", "result value": "low polyreactivity"}
{"construct sequence": "QVQLVESGGGLVQAGGSLRLSCAASGRIFYIYAMGWYRQAPGKERELVATISVSGGRTYYADSVKGRFTISRDNAKNTVYLHMNSLKPEDTAVYYCAKEGRFNIHKWYDYWGQGTQVTVSS", "experimental readout": "polyreactivity (PSR sort gate)", "result value": "low polyreactivity"}
{"construct sequence": "HVQLVESGGGLVQAGGRLRLSCAASGGTFWHYAMGWYRKAPGKERELFAAIRWRGVRTYYADSVKGRFTISRDNAKNTVYLQMNSLKPEDTAVYYCASTTWRSGRYNYWGQGTQVTVSS", "experimental readout": "polyreactivity (PSR sort gate)", "result value": "high polyreactivity"}
{"construct sequence": "QVQLVESGGGLVQAGGSLRLSCAASGRTLRQYAMGWYRQAPGKERELVAAISRGGSTTYADSVKGRFTISRDNAKNTVYIQMNSLKPEDTAVYYCAAVSSKGNRHEYDYWGQGTQVTVSS", "experimental readout": "polyreactivity (PSR sort gate)", "result value": "low polyreactivity"}

# get_value(readout='polyreactivity (PSR sort gate)', item= QVQLQESGGGLVQEGGSLRLSCAASGTISQEDWMGWYRQAPGKEREFVAAIGLGSNTNYADSLKGRFTISRDNAKNTVYLQMNSLKPEDTAVYYCAVSVWQYSDHVYRGQGTQVTVSS )
low polyreactivity
